- assayed_system: T1, human ROR2 expressed on the cell surface (human, UniProt Q01974 34-943)
- T1 construct: Endogenous ROR2 of human tumour cell lines; also called cell surface ROR2; ROR2 on tumour cell lines
- T1 sequence (Q01974 34-943 limits assumed): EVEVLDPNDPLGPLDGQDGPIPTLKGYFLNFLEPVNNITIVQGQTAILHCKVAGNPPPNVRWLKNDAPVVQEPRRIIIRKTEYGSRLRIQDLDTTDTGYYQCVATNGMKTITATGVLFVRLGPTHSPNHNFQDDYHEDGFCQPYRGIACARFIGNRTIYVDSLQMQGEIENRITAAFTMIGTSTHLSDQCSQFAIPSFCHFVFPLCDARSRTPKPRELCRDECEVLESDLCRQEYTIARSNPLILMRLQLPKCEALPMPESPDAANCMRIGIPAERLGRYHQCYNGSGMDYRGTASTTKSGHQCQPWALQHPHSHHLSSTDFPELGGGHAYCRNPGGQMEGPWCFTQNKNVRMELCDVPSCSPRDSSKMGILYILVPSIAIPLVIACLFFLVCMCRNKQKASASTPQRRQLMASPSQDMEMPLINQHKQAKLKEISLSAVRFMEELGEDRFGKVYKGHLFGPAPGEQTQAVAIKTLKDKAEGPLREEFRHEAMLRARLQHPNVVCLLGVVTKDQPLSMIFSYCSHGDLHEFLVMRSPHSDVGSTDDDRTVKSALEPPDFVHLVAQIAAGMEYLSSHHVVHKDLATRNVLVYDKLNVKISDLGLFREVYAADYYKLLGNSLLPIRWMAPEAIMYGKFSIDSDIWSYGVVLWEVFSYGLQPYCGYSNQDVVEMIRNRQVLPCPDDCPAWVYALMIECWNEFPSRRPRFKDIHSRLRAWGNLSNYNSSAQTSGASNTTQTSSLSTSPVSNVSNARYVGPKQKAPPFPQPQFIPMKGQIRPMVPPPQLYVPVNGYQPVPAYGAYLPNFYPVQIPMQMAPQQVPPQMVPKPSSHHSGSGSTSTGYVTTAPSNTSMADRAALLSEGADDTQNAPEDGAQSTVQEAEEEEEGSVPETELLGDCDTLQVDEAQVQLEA
- protocol_description: flow cytometry, SKMEL28 cells (melanoma)
- Set-up: reference not given here
metric_name: binding intensity
Returns: the value as a bare number; no unit string appended.

binder | number
ROR2-240 full length human IgG1 antibody (antibody, V domains shown, also called clone #240 IgG1) VH: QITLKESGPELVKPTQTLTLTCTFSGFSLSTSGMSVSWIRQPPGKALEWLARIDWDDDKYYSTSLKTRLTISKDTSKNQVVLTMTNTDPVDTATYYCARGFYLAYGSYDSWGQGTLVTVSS VL: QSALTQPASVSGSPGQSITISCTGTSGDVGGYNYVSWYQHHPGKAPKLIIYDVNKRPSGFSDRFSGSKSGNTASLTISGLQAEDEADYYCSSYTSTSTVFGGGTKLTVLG | 4
ROR2-27 full length human IgG1 antibody (antibody, V domains shown, also called clone #27; clone #027 IgG1) VH: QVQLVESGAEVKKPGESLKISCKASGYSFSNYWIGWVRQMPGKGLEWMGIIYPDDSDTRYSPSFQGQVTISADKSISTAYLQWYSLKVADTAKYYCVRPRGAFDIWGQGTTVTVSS VL: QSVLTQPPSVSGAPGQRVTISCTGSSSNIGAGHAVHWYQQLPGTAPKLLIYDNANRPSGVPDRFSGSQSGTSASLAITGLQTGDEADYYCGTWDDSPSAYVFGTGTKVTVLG | 8
ROR2-90 full length human IgG1 antibody (antibody, V domains shown, also called clone #90; antibody #90) VH: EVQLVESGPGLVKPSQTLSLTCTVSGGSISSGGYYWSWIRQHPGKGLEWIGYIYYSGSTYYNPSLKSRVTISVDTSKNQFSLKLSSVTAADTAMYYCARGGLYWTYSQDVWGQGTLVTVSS VL: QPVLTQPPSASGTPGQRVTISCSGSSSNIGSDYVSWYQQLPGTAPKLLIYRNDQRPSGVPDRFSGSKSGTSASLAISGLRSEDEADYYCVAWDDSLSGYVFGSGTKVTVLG | 26
ROR2-241 full length human IgG1 antibody (antibody, V domains shown) VH: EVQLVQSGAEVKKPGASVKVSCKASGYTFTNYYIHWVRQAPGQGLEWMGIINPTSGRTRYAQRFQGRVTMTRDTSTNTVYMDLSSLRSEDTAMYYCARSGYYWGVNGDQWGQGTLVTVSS VL: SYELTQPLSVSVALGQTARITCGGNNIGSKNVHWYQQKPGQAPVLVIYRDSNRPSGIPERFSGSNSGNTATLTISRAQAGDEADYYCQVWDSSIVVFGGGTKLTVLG | 20

Looking for the measured binding intensity of ROR2-23 full length human IgG1 antibody (antibody, V domains shown, The light chain of clone 023 is labelled kappa; also called clone #23; clone #023 IgG1) VH: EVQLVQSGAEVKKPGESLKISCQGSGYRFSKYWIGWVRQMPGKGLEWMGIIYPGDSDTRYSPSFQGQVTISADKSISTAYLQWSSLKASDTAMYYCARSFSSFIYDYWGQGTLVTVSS VL: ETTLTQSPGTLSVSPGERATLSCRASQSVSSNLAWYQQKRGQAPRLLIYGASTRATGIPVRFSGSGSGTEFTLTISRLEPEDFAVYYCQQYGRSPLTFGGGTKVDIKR , can you help?
20
